B1: ZNF649 (parent)
chain: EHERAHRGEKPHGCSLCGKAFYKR

Variants of: B1
Test Name: protein stability index of a GFP-peptide fusion (GPS, HEK-293T) (PSI 1-6); higher = more stable;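 further: lentivirally expressed fusions sorted by FACS into six bins by GFP to DsRed ratio, PSI derived from sequencing read proportions per bin multiplied by bin number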
Measurement Parameters: c terminus: a fixed tail appended
# protein stability index annotations
Readout Kind: protein stability index

variant_designation=Y22W readout_kind="protein stability index" numeric_readout=1.81
variant_designation=A5D readout_kind="protein stability index" numeric_readout=1.88
variant_designation=K10E readout_kind="protein stability index" numeric_readout=2.87
variant_designation=K10M readout_kind="protein stability index" numeric_readout=2.28
variant_designation=A5F readout_kind="protein stability index" numeric_readout=2.8
variant_designation=G13E readout_kind="protein stability index" numeric_readout=2.48
variant_designation=R7W readout_kind="protein stability index" numeric_readout=2.02
variant_designation=G18Y readout_kind="protein stability index" numeric_readout=1.85
variant_designation=E1A readout_kind="protein stability index" numeric_readout=2.16
variant_designation=L16I readout_kind="protein stability index" numeric_readout=2.2
variant_designation=H12F readout_kind="protein stability index" numeric_readout=3.39
variant_designation=E1W readout_kind="protein stability index" numeric_readout=1.85
variant_designation=H2Q readout_kind="protein stability index" numeric_readout=3.21
variant_designation=K23L readout_kind="protein stability index" numeric_readout=1.77
variant_designation=K10D readout_kind="protein stability index" numeric_readout=2.27
variant_designation=G18K readout_kind="protein stability index" numeric_readout=2.03
variant_designation=G8W readout_kind="protein stability index" numeric_readout=2.21
variant_designation=K10R readout_kind="protein stability index" numeric_readout=1.01
variant_designation=P11T readout_kind="protein stability index" numeric_readout=2.54
variant_designation=P11N readout_kind="protein stability index" numeric_readout=2.33
variant_designation=H12A readout_kind="protein stability index" numeric_readout=2.74
variant_designation=A20V readout_kind="protein stability index" numeric_readout=1.79
